# growth inhibition annotations
# assay overview: NCI Yeast Anticancer Drug Screen. Data for the mec2-1 strain (AID 157)
# assay context: S. cerevisiae mec2-1 strain, at 50.0 µM, hits give high values
About 79,000 compounds went through this panel and 15% of them were active in at least one assay; those are over-represented in the sample as a whole.
Write the answer as a number in %, unit excluded.

As a guide, the following entries are already answered.
molecule	readout unit	growth inhibition
CN(C)CCCNc1c2ccccc2nc2ccc([N+](=O)[O-])cc12	%	25.6
CCCCCN(CCCCC)C(=O)CCl	%	53.5
COC(=O)C(Sc1ccc(Cl)cc1)C1SC(=S)N(C)C1=O (stereo not drawn)	%	41.5
COC(=O)C1C(=O)CC(c2ccccc2)C1c1ccccc1 (stereo not drawn)	%	-6.25

Reported growth inhibition ( Cc1ccc2c(ccc3ccccc32)c1 ) = 16.4
